# procedure text: Heating reaction test with saturated aqueous solution of phosphotungstic acid: distribution of glucose
# Type: physicochemical
# run conditions: Second phase (aqueous phase); saturated aqueous solution of phosphotungstic acid triacontahydrate 30 g + glucose 5 g, heated
Reported Distribution ratio of glucose (%) values for a set of compounds

| compound | Distribution ratio of glucose (%) |
| --- | --- |
| CCCCCCC(C)O (stereo not shown) | 99.2 |
| CCCCCCCCO | 100 |
| CCCCOCC | 100 |
| CCOCC | 100 |

* * *

Reported Distribution ratio of phosphotungstic acid (based on tungsten) (%) values for a set of compounds
# procedure text: Heating reaction test with phosphotungstic acid triacontahydrate: distribution of phosphotungstic acid
# Format: physicochemical
# run conditions: Second phase (aqueous phase); phosphotungstic acid triacontahydrate 30 g + glucose 5 g, heated
metric: Distribution ratio of phosphotungstic acid (based on tungsten) (%)

| compound | measurement unit | value measured |
| --- | --- | --- |
| CCCCOCC | % | 10.2 |
| CCCCCCC(C)O (stereo not shown) | % | 1.7 |
| CCOCC | % | 1.7 |
| CCCCCCCCO | % | 3.1 |

* * *

# procedure text: Heating reaction test with phosphotungstic acid triacontahydrate: distribution of phosphotungstic acid
# Type: physicochemical
# run conditions: First phase; phosphotungstic acid triacontahydrate 30 g + glucose 5 g, heated
metric: Distribution ratio of phosphotungstic acid (based on tungsten) (%)

| compound | value measured |
| --- | --- |
| CCOCC | 0.03 |
| CCCCCCCCO | 96.9 |
| CCCCCCC(C)O (stereo not shown) | 98.3 |
| CCCCOCC | 0.1 |

* * *

Reported Distribution ratio of phosphotungstic acid (based on tungsten) (%) values for a set of molecules
# procedure text: Distribution ratio of phosphotungstic acid to organic solvent and water (powdery phosphotungstic acid)
# Assay type: physicochemical
# run conditions: Second phase (from top), ICP
metric: Distribution ratio of phosphotungstic acid (based on tungsten) (%)

| molecule | value measured |
| --- | --- |
| CCOCC [Diethyl ether] | 99.4 |
| CCCCCCC(C)O (stereo not shown) [2-Octanol] | 2.1 |
| CCCCCCCCO [1-Octanol] | 2.3 |
| CCCCOCC [n-Butyl ethyl ether] | 2.9 |

* * *

# procedure text: Heating reaction test with saturated aqueous solution of phosphotungstic acid: distribution of phosphotungstic acid
# Assay type: physicochemical
# run conditions: First phase; saturated aqueous solution of phosphotungstic acid triacontahydrate 30 g + glucose 5 g, heated
Reported Distribution ratio of phosphotungstic acid (based on tungsten) (%) values for a set of compounds
metric: Distribution ratio of phosphotungstic acid (based on tungsten) (%)

| compound | value measured |
| --- | --- |
| CCCCOCC | 0.1% |
| CCCCCCCCO | 96.8% |
| CCCCCCC(C)O (stereo not shown) | 98.1% |
| CCOCC | 0.04% |

* * *

Reported Distribution ratio of phosphotungstic acid (based on tungsten) (%) values for a set of molecules
# procedure text: Heating reaction test with saturated aqueous solution of phosphotungstic acid: distribution of phosphotungstic acid
# Format: physicochemical
# run conditions: Second phase (aqueous phase); saturated aqueous solution of phosphotungstic acid triacontahydrate 30 g + glucose 5 g, heated
metric: Distribution ratio of phosphotungstic acid (based on tungsten) (%)

| molecule | measurement unit | value measured |
| --- | --- | --- |
| CCCCCCCCO | % | 3.2 |
| CCCCCCC(C)O (stereo not shown) | % | 1.9 |
| CCOCC | % | 1.6 |
| CCCCOCC | % | 8.9 |

The values you see were collected from patent US20100324282A1.
